tested on: hepatocytes; experiment: Metabolic stability assay in hepatocyte suspension; assay type: in vitro ADME; conditions: 1 μM test compound, Table 4
Quick reference for QH among some compounds
Kindly provide the numeric value in % only, without the unit symbol.

| compound | QH, % |
| --- | --- |
| N=C(N)NC(=O)OCc1ccnc(N2CCN(c3ccc(C(F)(F)F)nn3)CC2)c1F [Example 1.099] | 9 |
| N=C(N)NC(=O)OCc1ccnc(N2CCC(C3CCOCC3)CC2)c1F [Example 1.023] | 14 |
| N#Cc1ccc(N2CCN(c3nccc(COC(=O)NC(=N)N)c3F)CC2)cc1 [Example 1.055] | 16 |

For COC(=O)N1CCC(C2CCN(c3nccc(COC(=O)NC(=N)N)c3F)CC2)CC1 [Example 1.095] on hepatocytes, measured QH was 15

For N=C(N)NC(=O)OCc1ccnc(N2CCN(c3ccc(C(N)=O)cn3)CC2)c1F [Example 1.086] on hepatocytes, measured QH was 11

For COc1cccc(C2=CCN(c3nccc(COC(=O)NC(=N)N)c3F)CC2)c1 [Example 1.058] on hepatocytes, measured QH was 18

For N=C(N)NC(=O)OCc1ccnc(N2CCN(c3ccccc3)C(=O)C2)c1F [Example 1.033] on hepatocytes, measured QH was 4
